FYI, the data here is from ChEMBL document CHEMBL3745671.

- Tested on: Homo sapiens
- protocolDescription: Dose normalized AUCtau in healthy human at 200 mg/kg, po bid
- Type: ADME, organism-based
- setupConditions: in vivo
observable: AUC/dose (ng·h/mL/mg)
Numeric only. Scale: ng·h/mL/mg

Which AUC/dose reading was recorded for the compound CCS(=O)(=O)NCc1cncc(-c2c(C#N)c3ccc(Cl)cc3n2C)c1 ?
10.9

---

I'd be grateful if you could share measured clearance for these entries.
- protocolDescription: Clearance in continuous angiotensin-2 infusion Sprague-Dawley rat model at 3 mg/kg, po and 1 mg/kg, iv
- Assay type: ADME, organism-based
- setupConditions: in vivo
Give me the value, and tack the unit on after it.

Which clearance reading was recorded for the compound CCS(=O)(=O)NCc1cncc(-c2cc3ccc(Cl)nc3n2C)c1 ?
68 mL/min/kg

Now give it for CCS(=O)(=O)NCc1cncc(-c2c(C#N)c3ccc(Cl)cc3n2C)c1 too.
18 mL/min/kg
